Where do the numbers come from? From patent US7470684B2.

assay-target: human NK3 receptor (Homo sapiens, UniProt P29371)
Construct: expressed in transfected cells; host or cells: HEK293 cells, transiently transfected; membranes
Sequence (P29371 whole entry): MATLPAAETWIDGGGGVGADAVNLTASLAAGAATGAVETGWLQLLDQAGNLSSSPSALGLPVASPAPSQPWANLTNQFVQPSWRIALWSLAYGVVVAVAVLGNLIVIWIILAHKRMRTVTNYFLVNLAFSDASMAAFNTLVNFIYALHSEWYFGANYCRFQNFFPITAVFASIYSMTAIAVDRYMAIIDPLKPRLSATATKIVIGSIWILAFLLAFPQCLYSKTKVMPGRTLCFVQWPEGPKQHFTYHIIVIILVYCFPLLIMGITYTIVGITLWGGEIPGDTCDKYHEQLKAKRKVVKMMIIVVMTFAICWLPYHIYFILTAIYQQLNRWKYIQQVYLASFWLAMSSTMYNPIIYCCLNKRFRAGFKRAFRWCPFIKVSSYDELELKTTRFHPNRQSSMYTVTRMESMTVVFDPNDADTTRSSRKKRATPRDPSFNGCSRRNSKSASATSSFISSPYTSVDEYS
experimental-details: [3H]SR142801 competition binding assay
stated-conditions: [3H]SR142801 displacement, membranes of HEK293 cells transiently expressing recombinant human NK3 receptor; read-out: hNK3 Ki
pKi: −log10 of the molar value.
Where pKi equals or exceeds 8, the correct label is 1.0; where it does not, the label is 0.0.

As a guide, the following entries are already answered.
1) Cc1ccsc1CNC(=O)C(CCCN1CCC2(CC1)OC(=O)Nc1ccc(F)cc12)c1ccc(Cl)c(Cl)c1 (stereo not shown); 0.0
2) CN(Cc1ccc(N2CCOCC2)cc1)C(=O)C(CCN1CCC2(CC1)OC(=O)Nc1ccc(F)cc12)c1ccc(Cl)c(Cl)c1 (stereo not shown); 0.0
3) O=C1Nc2ccc(F)cc2C2(CCN(CCCC(C(=O)NCc3ccc(C(F)(F)F)cc3)c3ccc(Cl)c(Cl)c3)CC2)O1 (stereo not shown); 0.0
4) CN1C(=O)OC2(CCN(CCC(C(=O)NCc3ccc(-c4csnn4)cc3)c3ccc(Cl)c(Cl)c3)CC2)c2cc(F)ccc21 (stereo not shown); 0.0
5) CN(Cc1ccc(-c2ccncc2)cc1)C(=O)C(CCN1CCC2(CC1)OC(=O)Nc1ccc(F)cc12)c1ccc(Cl)c(Cl)c1 (stereo not shown); 0.0

Now consider the entry below.
Is it the case that Cc1ccc(CN(C)C(=O)C(CCN2CCC3(CC2)OC(=O)N(C)c2ccc(F)cc23)c2ccc(Cl)c(Cl)c2)cc1 (stereo not shown) has pKi reaching or exceeding 8?
1.0

----------
assay-target: human NK3 receptor (Homo sapiens)
Construct: expressed in transfected cells; host or cells: HEK293 cells, transiently transfected; membranes
experimental-details: [3H]SR142801 competition binding assay
stated-conditions: hNK3 Ki, [3H]SR142801 displacement, membranes of HEK293 cells transiently expressing recombinant human NK3 receptor
Please provide measured Ki for the entries that follow.
Numbers only, in nM.

Give me Ki for each of these compounds, listed below.
1. CCN(Cc1ccc(C)cc1)C(=O)C(CCN1CCC2(CC1)OC(=O)N(C)c1ccc(F)cc12)c1ccc(Cl)c(Cl)c1 (stereo not shown)
2. CN(Cc1ccccc1)C(=O)C(CCN1CCC2(CC1)OC(=O)N(C)c1ccc(F)cc12)c1ccc(Cl)c(Cl)c1 (stereo not shown)
3. CN(Cc1ccc(N2CCOCC2)cc1)C(=O)C(CCN1CCC2(CC1)OC(=O)N(C)c1ccc(F)cc12)c1ccc(Cl)c(Cl)c1 (stereo not shown)
4. CCN(Cc1ccccc1F)C(=O)C(CCN1CCC2(CC1)OC(=O)Nc1ccc(F)cc12)c1ccc(Cl)c(Cl)c1 (stereo not shown)

1. 4.2
2. 0.8
3. 28.8
4. 31.2

----------
Please provide measured Ki for the entries that follow.
assay-target: human NK3 receptor (Homo sapiens, UniProt P29371)
Construct: expressed in transfected cells; host or cells: HEK293 cells, transiently transfected; membranes
experimental-details: [3H]SR142801 competition binding assay
stated-conditions: hNK3 Ki, [3H]SR142801 displacement, membranes of HEK293 cells transiently expressing recombinant human NK3 receptor
One number for each entry, in nM.

These solved cases illustrate the format of a correct answer.
1) O=C1Nc2ccc(F)cc2C2(CCN(CCCC(C(=O)NCc3ccc(Cl)cc3)c3ccc(Cl)c(Cl)c3)CC2)O1 (stereo not drawn); 98.3
2) Cc1ccc(CN(C)C(=O)C(CCCN2CCC3(CC2)OC(=O)Nc2ccc(F)cc23)c2ccc(Cl)c(Cl)c2)cc1 (stereo not drawn); 95.4
3) N#Cc1ccc(CNC(=O)C(CCN2CCC3(CC2)OC(=O)Nc2ccc(F)cc23)c2ccc(Cl)c(Cl)c2)cc1 (stereo not drawn); 12.1
4) CN(Cc1cccc(Cl)c1)C(=O)C(CCN1CCC2(CC1)OC(=O)Nc1ccc(F)cc12)c1ccc(F)cc1 (stereo not drawn); 59.4
5) Cc1ccc(CNC(=O)C(CCN2CCC3(CC2)OC(=O)N(C)c2ccc(F)cc23)c2ccc(Cl)c(Cl)c2)cc1 (stereo not drawn); 5.8

Give me Ki for each of these molecules, listed below.
1. CN(Cc1cccc(C(F)(F)F)c1)C(=O)C(CCCN1CCC2(CC1)OC(=O)Nc1ccc(F)cc12)c1ccc(Cl)c(Cl)c1 (stereo not drawn)
2. CN(Cc1ccccc1Cl)C(=O)C(CCN1CCC2(CC1)OC(=O)Nc1ccc(F)cc12)c1ccc(F)cc1 (stereo not drawn)
3. CN1C(=O)OC2(CCN(CCC(C(=O)NCc3ccc(S(C)(=O)=O)cc3)c3ccc(Cl)c(Cl)c3)CC2)c2cc(F)ccc21 (stereo not drawn)
4. Cc1ccc(CN(C)C(=O)C(CCN2CCC3(CC2)OC(=O)Nc2ccc(F)cc23)c2ccc(Cl)c(Cl)c2)cc1 (stereo not drawn)

[91.9, 38.5, 54.7, 4.6]
